- measuredTarget: UniProt P42336
- Sequence (P42336 whole entry): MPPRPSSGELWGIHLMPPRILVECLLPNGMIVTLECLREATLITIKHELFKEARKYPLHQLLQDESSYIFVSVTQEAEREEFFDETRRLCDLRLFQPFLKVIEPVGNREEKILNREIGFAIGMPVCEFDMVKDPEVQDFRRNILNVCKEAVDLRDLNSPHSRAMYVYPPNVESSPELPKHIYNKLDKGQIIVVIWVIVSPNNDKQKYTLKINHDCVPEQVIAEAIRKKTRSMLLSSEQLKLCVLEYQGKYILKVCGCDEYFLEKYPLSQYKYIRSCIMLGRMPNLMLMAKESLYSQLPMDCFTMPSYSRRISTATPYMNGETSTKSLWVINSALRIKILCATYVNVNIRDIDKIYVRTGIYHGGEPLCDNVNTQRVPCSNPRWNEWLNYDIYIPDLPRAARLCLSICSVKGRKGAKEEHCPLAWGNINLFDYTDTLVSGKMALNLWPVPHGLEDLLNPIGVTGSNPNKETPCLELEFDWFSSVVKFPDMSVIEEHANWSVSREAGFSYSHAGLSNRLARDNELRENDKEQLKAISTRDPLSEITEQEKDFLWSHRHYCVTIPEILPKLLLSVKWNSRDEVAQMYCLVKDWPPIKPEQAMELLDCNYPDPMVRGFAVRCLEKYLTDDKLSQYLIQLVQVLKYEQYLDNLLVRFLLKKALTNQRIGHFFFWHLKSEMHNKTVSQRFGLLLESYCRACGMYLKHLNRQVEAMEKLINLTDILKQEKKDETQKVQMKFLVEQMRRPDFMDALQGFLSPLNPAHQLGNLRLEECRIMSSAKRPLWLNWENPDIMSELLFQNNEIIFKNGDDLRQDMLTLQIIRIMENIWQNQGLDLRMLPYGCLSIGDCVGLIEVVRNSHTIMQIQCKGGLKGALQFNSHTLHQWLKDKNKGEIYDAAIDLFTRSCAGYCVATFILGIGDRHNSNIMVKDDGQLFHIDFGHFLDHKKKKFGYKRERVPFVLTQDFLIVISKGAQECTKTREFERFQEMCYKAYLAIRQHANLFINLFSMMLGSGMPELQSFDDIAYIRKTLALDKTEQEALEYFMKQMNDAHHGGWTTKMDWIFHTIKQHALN
- Sequence (P27986 whole entry partner): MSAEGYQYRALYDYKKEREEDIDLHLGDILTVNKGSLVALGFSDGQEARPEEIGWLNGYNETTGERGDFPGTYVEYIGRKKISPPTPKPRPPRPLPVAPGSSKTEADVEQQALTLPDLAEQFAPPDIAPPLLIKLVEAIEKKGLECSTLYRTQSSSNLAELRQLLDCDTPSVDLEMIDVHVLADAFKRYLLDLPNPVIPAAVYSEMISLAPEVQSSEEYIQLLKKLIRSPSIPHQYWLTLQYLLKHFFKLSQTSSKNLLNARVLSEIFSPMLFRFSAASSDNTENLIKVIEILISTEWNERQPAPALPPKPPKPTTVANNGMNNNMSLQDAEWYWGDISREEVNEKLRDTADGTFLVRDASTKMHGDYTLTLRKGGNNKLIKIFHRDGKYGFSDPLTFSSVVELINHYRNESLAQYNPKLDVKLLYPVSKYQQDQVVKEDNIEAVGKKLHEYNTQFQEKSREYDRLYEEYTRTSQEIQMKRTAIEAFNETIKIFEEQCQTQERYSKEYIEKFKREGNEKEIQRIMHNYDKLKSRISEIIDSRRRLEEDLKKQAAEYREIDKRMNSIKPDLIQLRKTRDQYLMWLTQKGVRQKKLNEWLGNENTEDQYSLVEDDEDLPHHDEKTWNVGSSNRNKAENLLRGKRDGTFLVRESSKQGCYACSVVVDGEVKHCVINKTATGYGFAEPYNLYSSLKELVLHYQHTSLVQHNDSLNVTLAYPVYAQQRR
- assayProtocol: PI 3-Kinase (human) HTRF assay, p110α/p85α
- Type: biochemical
observable: IC50

Query Nc1nc2cc(-c3ccc4ncc(N5CC6CCC(C5)O6)nc4n3)ccc2o1 yields IC50 of < 100 nM

Query CN1CCC(c2cnc3ccc(-c4ccc5oc(N)nc5c4)cc3n2)CC1 yields IC50 of < 100 nM

Query Cc1cc2oc(N)nc2cc1-c1ccc2ncc(N3CCN[C@@H](C)C3)nc2c1 yields IC50 of < 10000 nM

Query Nc1nc2cc(-c3ccc4ncc(N5CC(N6CCS(=O)(=O)CC6)C5)nc4c3)ccc2o1 yields IC50 of < 100 nM

Query Nc1nc2cc(-c3ccc4ncc(C(=O)N5CCC(O)CC5)n4c3)ccc2o1 yields IC50 of < 1000 nM

Query CN1CC2CN(c3cnc4ccc(-c5ccc6oc(N)nc6c5)nc4n3)CC2C1 (stereo not shown) yields IC50 of < 100 nM

Query CNC(=O)N1CCN(c2cnc3ccc(-c4ccc5oc(N)nc5c4)cc3n2)CC1 yields IC50 of < 100 nM

Query COc1ncc(-c2ccc3ncn(C4CCN(C)CC4)c(=O)c3c2)cc1NS(=O)(=O)c1ccccc1 yields IC50 of < 100 nM

Query Nc1nc2cc(-c3cccc4[nH]nc(N)c34)ccc2o1 yields IC50 of > 10000 nM

Query C[C@H]1CN(c2cnc3ccc(-c4ccc5oc(N)nc5c4)cc3n2)CCN1 yields IC50 of < 100 nM

====

observable: IC50

# Nc1nc2cc(-c3ccc4ncnc(NC5CCN(C(=O)C6CC6)CC5)c4c3)ccc2o1 with PI3K δ (Homo sapiens (Human), UniProt O00329): IC50 is < 0.1 µM

# CC(=O)Nc1nc2ccc(-c3ccc4nccc(-c5ccncc5)c4c3)cc2s1 with PI3K δ (Homo sapiens (Human), UniProt O00329): IC50 is > 10 µM

# Nc1nc2cc(-c3cnc4ccc(N5C6CCC5COC6)nc4c3)ccc2o1 with PI3K δ (Homo sapiens (Human), UniProt O00329): IC50 is > 10 µM

# Nc1nc2cc(-c3ccc4ncc(N5CC(N6C7CCC6COC7)C5)cc4n3)ccc2o1 with PI3K δ (Homo sapiens (Human), UniProt O00329): IC50 is < 10 µM

# Nc1nc2cc(-c3ccc4ncc(-c5ccccc5)nc4c3)ccc2o1 with PI3K δ (Homo sapiens (Human), UniProt O00329): IC50 is > 10 µM

# CN1CCN(c2ccc(-c3cnc4ccc(-c5ccc6oc(N)nc6c5)cn34)cn2)CC1 with PI3K δ (Homo sapiens (Human), UniProt O00329): IC50 is < 1 µM

# Nc1nc2cc(-c3ccc4ncc(C(=O)NC5CCOCC5)n4c3)ccc2o1 with PI3K δ (Homo sapiens (Human), UniProt O00329): IC50 is < 0.1 µM

# C[C@H]1CN(c2cnc3ccc(-c4ccc5oc(N)nc5c4)nc3c2)CCN1 with PI3K δ (Homo sapiens (Human), UniProt O00329): IC50 is < 10 µM

# CCOC(=O)N1CCN(c2cnc3ccc(-c4ccc5oc(N)nc5c4)cc3n2)CC1 with PI3K δ (Homo sapiens (Human), UniProt O00329): IC50 is < 10 µM

# C[C@H]1CN(C2CN(c3cnc4ccc(-c5ccc6oc(N)nc6c5)nc4c3)C2)CCN1C with PI3K δ (Homo sapiens (Human), UniProt O00329): IC50 is < 1 µM

# Nc1nc2cc(-c3ccc4ncc(=O)[nH]c4c3)ccc2o1 with PI3K δ (Homo sapiens (Human), UniProt O00329): IC50 is > 10 µM

# Nc1nc2cc(-c3ccc4ncc(N5CC(N6CCN(CC7CC7)CC6)C5)cc4n3)ccc2o1 with PI3K δ (Homo sapiens (Human), UniProt O00329): IC50 is < 1 µM

# CN1CCN(C(=O)C2CN(c3cnc4ccc(-c5ccc6oc(N)nc6c5)cc4n3)C2)CC1 [drawing 360] with PI3K δ (Homo sapiens (Human), UniProt O00329): IC50 is < 1 µM

# N#Cc1cnc2ccc(-c3ccc4oc(N)nc4c3)cc2c1 with PI3K δ (Homo sapiens (Human), UniProt O00329): IC50 is > 10 µM

# Nc1nc2cc(-c3ccc4ncc(N5CCN(CCO)CC5)nc4c3)ccc2o1 with PI3K δ (Homo sapiens (Human), UniProt O00329): IC50 is < 10 µM

# Nc1nc2ccc(-c3ccc4ncc(C(=O)N5CCOCC5)n4c3)cc2o1 with PI3K δ (Homo sapiens (Human), UniProt O00329): IC50 is > 10 µM

# Nc1nc2cc(-c3ccc4ncc(-c5cccnc5)nc4c3)ccc2o1 with PI3K δ (Homo sapiens (Human), UniProt O00329): IC50 is > 10 µM

# Nc1nc2cc(-c3ccc4ncc(-c5ccnc(N6CCOCC6)c5)nc4c3)ccc2o1 with PI3K δ (Homo sapiens (Human), UniProt O00329): IC50 is > 10 µM

# CC1(C)CN(C2CN(c3cnc4ccc(-c5ccc6oc(N)nc6c5)nc4n3)C2)CCN1 with PI3K δ (Homo sapiens (Human), UniProt O00329): IC50 is < 1 µM

# Cc1nccn1C1CN(c2cnc3ccc(-c4ccc5oc(N)nc5c4)nc3c2)C1 with PI3K δ (Homo sapiens (Human), UniProt O00329): IC50 is < 1 µM

# CN1CCC(n2cnc3ccc(-c4ccc5oc(N)nc5c4)cc3c2=O)CC1 with PI3K δ (Homo sapiens (Human), UniProt O00329): IC50 is < 10 µM

# Nc1nc2cc(-c3ccc4ncc(C(=O)N5CCOCC5)cc4c3)ccc2o1 with PI3K δ (Homo sapiens (Human), UniProt O00329): IC50 is > 10 µM

# Nc1nc2cc(-c3ccc4nccn4c3)ccc2o1 with PI3K δ (Homo sapiens (Human), UniProt O00329): IC50 is > 10 µM

# CS(=O)(=O)N1CCC(Nc2ncnc3ccc(-c4ccc5oc(N)nc5c4)cc23)CC1 with PI3K δ (Homo sapiens (Human), UniProt O00329): IC50 is < 0.1 µM

# CC1CN(c2cnc3ccc(-c4ccc5oc(N)nc5c4)cc3n2)CCO1 (centres unmarked) with PI3K δ (Homo sapiens (Human), UniProt O00329): IC50 is < 10 µM

# CN1CCN(C2CN(c3cnc4ccc(-c5ccc6oc(N)nc6c5)nc4n3)C2)CC1 with PI3K δ (Homo sapiens (Human), UniProt O00329): IC50 is < 1 µM

# Nc1nc2cc(-c3ccc4ncc(N5CCC(O)CC5)cc4n3)ccc2o1 with PI3K δ (Homo sapiens (Human), UniProt O00329): IC50 is < 10 µM

# CC(C)N1CCN(c2cnc3ccc(-c4ccc5oc(N)nc5c4)nc3c2)CC1 with PI3K δ (Homo sapiens (Human), UniProt O00329): IC50 is < 1 µM

# CCN1CCN(c2cnc3ccc(-c4ccc5oc(N)nc5c4)cc3n2)CC1 with PI3K δ (Homo sapiens (Human), UniProt O00329): IC50 is < 10 µM

# Nc1nc2cc(-c3ccc4ncc(N5CCN(CC6CC6)CC5)nc4c3)ccc2o1 with PI3K δ (Homo sapiens (Human), UniProt O00329): IC50 is < 1 µM

# Nc1nc2cc(-c3cnc4ncc(-c5ccncc5)n4c3)ccc2o1 with PI3K δ (Homo sapiens (Human), UniProt O00329): IC50 is > 10 µM

# CN1CCC(Nc2cnc3ccc(-c4ccc5oc(N)nc5c4)cc3n2)CC1 with PI3K δ (Homo sapiens (Human), UniProt O00329): IC50 is < 0.1 µM

# Nc1nsc2cc(-c3ccc4nccc(-c5ccncc5)c4c3)ccc12 with PI3K δ (Homo sapiens (Human), UniProt O00329): IC50 is < 1 µM

# Nc1nc2cc(-c3ccc4ncc(C5=CCOCC5)nc4n3)ccc2o1 with PI3K δ (Homo sapiens (Human), UniProt O00329): IC50 is > 10 µM

# CN1CCCN(c2cnc3ccc(-c4ccc5oc(N)nc5c4)cc3n2)CC1 with PI3K δ (Homo sapiens (Human), UniProt O00329): IC50 is > 10 µM

# CC(=O)N1CCC(N(C)c2ncnc3ccc(-c4ccc5oc(N)nc5c4)cc23)CC1 with PI3K δ (Homo sapiens (Human), UniProt O00329): IC50 is < 1 µM

# C[C@H]1COCCN1c1cnc2ccc(-c3ccc4oc(N)nc4c3)nc2n1 with PI3K δ (Homo sapiens (Human), UniProt O00329): IC50 is > 10 µM

# Cc1nc2ccc(-c3ccc4oc(N)nc4c3)nn2c1-c1ccncc1 with PI3K δ (Homo sapiens (Human), UniProt O00329): IC50 is > 10 µM

# CC(C)N1CCC(n2cnc3ccc(-c4ccc5oc(N)nc5c4)cc3c2=O)CC1 with PI3K δ (Homo sapiens (Human), UniProt O00329): IC50 is > 10 µM

# Nc1nc2cc(-c3ccc4ncc(N5CC6CCC(C5)O6)nc4n3)ccc2o1 with PI3K δ (Homo sapiens (Human), UniProt O00329): IC50 is > 10 µM

# CN1CCN(c2ccnc3ccc(-c4ccc5oc(N)nc5c4)cc23)CC1 with PI3K δ (Homo sapiens (Human), UniProt O00329): IC50 is < 10 µM
